Below, each entry is listed with its recorded pKa.
test: Dissociation constant of the compound; assay type: physicochemical
// no unit string in output, number only

These recorded examples may help you get a feel for the data.
molecule | pKa
CC(C)NCC(O)COc1ccc(NC=O)cc1 (stereo unspecified) | 9.5
CC(C)NCC(O)COc1cccc2[nH]ccc12 (stereo unspecified) | 9.7
O=C(NCCNCC(O)COc1ccc(CCOCCOCC2CC2)cc1)N1CCC(O)CC1 (stereo unspecified) | 8.5
CCC(=O)Nc1ccc(OCC(O)CNC(C)C)cc1 (stereo unspecified) | 9.5

Input: Which measured pKa value corresponds to C=CCOc1ccccc1OCC(O)CNC(C)C (stereo unspecified) ?
Output: 9.5

Input: Which measured pKa value corresponds to CC(=O)Nc1ccc(OCC(O)CNC(C)C)cc1 (stereo unspecified) ?
Output: 9.5
